Experiment: basal HepG2 mitochondrial membrane potential changes, profiling panel, cell-based, JC-1 fluorescence, 24 h, 100 nL compound (AID 1167); also: test concentration not given here
Conditions: higher = more signal
measured-property: z-score
Just the number, please, no unit attached.

Look at this compound and give its reported z-score. "CCN1C(=O)[C@H]2[C@H]3[C@H](O)[C@H](O)CC(=NO[C@H](C)c4cn([C@@H]5COC[C@H]5O)nn4)[C@@H]3CC[C@H]2C1=O"
-0.407

Please do the same for "C[C@@H](c1ccccc1)N1C(=O)[C@H]2[C@H]3[C@H](O)[C@H](O)CC(=NOCc4ccccc4)[C@@H]3CC[C@H]2C1=O" as well.
-0.265

Please do the same for C=CC[C@@H]1C=CC(ON=C(C)C)[C@@H](CO)O1 (stereo partly drawn) as well.
-0.459

Please do the same for "O=C1C2=CC[C@H]3C(=O)N(C[C@@H]4CCCO4)C(=O)[C@H]3[C@H]2[C@H](O)[C@@H]2O[C@H]12" as well.
-0.549

Please do the same for COC(=O)[C@H](C)NC(=O)CCC1CC(OC(=O)NCc2cccc3ccccc23)CC2(CCCC(COC(=O)NCc3ccccc3)O2)O1 (stereo partly drawn) as well.
1.46

Please do the same for "C=CC[C@@H]1C=C[C@H](ON=C(C)CCN2CCCc3nc(C)c(C)cc32)[C@@H](CO)O1" as well.
-0.276

Please do the same for "C=CC[C@@H]1C=C[C@H](ON=CC[C@@H]2C=C[C@H](OC(C)=O)[C@@H](COC(C)=O)O2)[C@@H](CO)O1" as well.
0.169

Please do the same for "C#CCCCON=C1[C@H]2CCn3c(=O)n(Cc4cc5c(cc4Cl)OCO5)c(=O)n3[C@H]2[C@H](O)[C@@H]2O[C@H]12" as well.
-0.663

---

Exercise: state measured z-score for each of the compounds provided.
Experiment: E. coli DRC41 culture turbidity changes, primary screen, E. coli filamentation inducer project, strain DRC41, OD650, 48 h (AID 1152);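 also: E. coli MC1000 strain DRC41 lacking acrAB efflux pump and sulA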
Details: E. coli DRC41 (acrAB sulA), higher = more signal, called active from +8 up or from −8 down
Just the number, please, no unit attached.

Look at this compound and give its reported z-score. "CC(C)CN1CCc2nc(-c3ccccc3)c3c(c2C1)CO[C@@H](C)C3"
0.696

Please do the same for C=CCOCC1CN2[C@@H](CC[C@@H](C)[C@@H]2c2ccc(Br)cc2)C(=O)O1 (stereo partly drawn) as well.
0.298

Please do the same for CCOC(=O)[C@H](Cc1ccccc1)NC(=O)CCC1CC(OC(=O)NCc2cccc3ccccc23)CC2(CCCC(COC(=O)NCCc3ccccc3OC)O2)O1 (stereo partly drawn) as well.
-0.0287

Please do the same for "COc1cccc([C@H](O)Cn2cc(-c3ccc(CON=C(C)C)cc3)nn2)c1" as well.
0.697

Please do the same for "CC1(C)O[C@H]2O[C@H]([C@H](O)CON=C3[C@H]4CCn5c(=O)n(-c6ccccc6)c(=O)n5[C@H]4[C@H](O)[C@@H]4O[C@H]34)[C@H](O)[C@H]2O1" as well.
-0.169

Please do the same for "COc1ccc(-c2cnnc(CCCn3ccnc3-c3ccccc3)n2)cc1" as well.
-0.249

Please do the same for "C[C@@H](c1ccccc1)N1C(=O)[C@H]2[C@H]3[C@H](O)[C@H](O)CC(=NOCc4ccccc4)[C@@H]3CC[C@H]2C1=O" as well.
-1.42

Please do the same for "CC(CCN1CCCCc2nc(C)c(C)cc21)=NO[C@H](C)c1cn([C@@H]2COC[C@H]2O)nn1" as well.
0.431

Just for reference, PubChem BioAssay is where these values come from.
